Field: log10(TGI). Provide a value for each of the compounds that follow.
- Test system: SK-MEL-5 melanoma
- PROTOCOL NOTES: NCI tumour cell line growth inhibition, 48 h
For clarity, the numbers are log10 values of TGI expressed in µM.

// solved cases for log10(TGI) follow
Cc1ccc2sc3c(NCCCN)nc4ccccc4c3c(=O)c2c1 :: 0.53
Nc1nc(-c2ccc3c(c2)/C(=C\c2cc(Br)c(O)c(Br)c2)C(=O)N3)cs1 :: 1.08
CCC(=O)NC1=C(Cl)C(=O)C(NC(=O)CC)=C(Cl)C1=O :: 1.50
CCOC(=O)N1CCC(N=C2CSc3nnc(-c4cc(C(F)(F)F)cc(C(F)(F)F)c4)n3N2)CC1 :: 0.48
NS(=O)(=O)c1ccc(-n2nc3c(c2-c2cccs2)Cc2ccccc2-3)cc1 :: 1.35
CSc1ccc(N2C(=O)C3c4[nH]c5ccccc5c4C4CCC(C(C)(C)C)CC4C3C2=O)cc1 (stereo not drawn) :: 1.77
COc1cc(OC)c(/C=C/C(=O)c2c(OC)cc(OC)cc2OC)c(OC)c1 :: 1.05
Cc1nnc(N/N=C/c2ccc([N+](=O)[O-])o2)[nH]c1=O :: 0.52
c1ccc2c(N=NSc3ncnc4nc[nH]c34)c3ccccc3nc2c1 :: 0.38

Next item in the queue.
What log10(TGI) value was documented for this compound, CCO/C=C\C12CCCC1NC(c1ccccc1)(c1ccccc1)O2 (stereo not drawn) ? 1.49
